The reported measurements were obtained from patent US4044134A.

# Tested on: passive cutaneous anaphylaxis (PCA) reaction
# assay_procedure: passive cutaneous anaphylaxis (PCA) test, i.v. or oral administration
# Assay type: in vivo, male Charles River Wistar rats
# condition_description: Rattus norvegicus; Oral, 30 mg/kg; read-out: degree (%) of protection, PCA test
# Experimental: In the PCA test, normal animals are injected intradermally (i.d.) with antibodies contained in serum obtained from actively sensitized animals. The animals are then challenged intravenously with antigen mixed with a dye such as Evans' Blue. […] The test animals are then asphyxiated and the intensity of the reaction determined by measuring the diameter and intensity of the blue coloration on the inner surface of the animals skin. […]
Counter-ions that a name gives are not always drawn.
Decision: inhibition in vivo at 30 mg/kg >= 4% yields fulfilled, all other cases yield not fulfilled.

{"compound": "CCOC(=O)c1nc2nc3c(OC)cc(OC)cc3cc2c(=O)[nH]1", "assayed_target": "passive cutaneous anaphylaxis (PCA) reaction", "class_name": "fulfilled"}
{"compound": "O=C(O)c1nc2cc3ccccc3cc2c(=O)[nH]1", "assayed_target": "passive cutaneous anaphylaxis (PCA) reaction", "class_name": "not fulfilled"}
{"compound": "CCOC(=O)c1nc2nc3cc4c(cc3cc2c(=O)[nH]1)OCO4", "assayed_target": "passive cutaneous anaphylaxis (PCA) reaction", "class_name": "not fulfilled"}
{"compound": "CCOC(=O)c1nc2nc3ccc(SC)cc3cc2c(=O)[nH]1", "assayed_target": "passive cutaneous anaphylaxis (PCA) reaction", "class_name": "fulfilled"}
{"compound": "CCOC(=O)c1nc2nc3ccc(F)cc3cc2c(=O)[nH]1", "assayed_target": "passive cutaneous anaphylaxis (PCA) reaction", "class_name": "fulfilled"}
{"compound": "CCOC(=O)c1nc2nc3cc(OC)c(O)cc3cc2c(=O)[nH]1 [COOC2 H5/H/H/OH/OCH3/H, Trifluoroacetate]", "assayed_target": "passive cutaneous anaphylaxis (PCA) reaction", "class_name": "fulfilled"}
{"compound": "CCOC(=O)c1nc2nc3ccccc3cc2c(=O)[nH]1", "assayed_target": "passive cutaneous anaphylaxis (PCA) reaction", "class_name": "fulfilled"}

====

# System: passive cutaneous anaphylaxis (PCA) reaction
# assay_procedure: passive cutaneous anaphylaxis (PCA) test, i.v. or oral administration
# Assay type: in vivo, male Charles River Wistar rats
# condition_description: Rattus norvegicus, iv; I.V., 3 mg/kg; read-out: degree (%) of protection, PCA test
Decision: inhibition in vivo at 3 mg/kg >= 90% yields y, all other cases yield n.

{"input_smiles": "COc1cc2cc3c(=O)[nH]c(C(C)=O)nc3nc2cc1OC", "class_name": "y"}
{"input_smiles": "CCOC(=O)c1nc2nc3cc(OC)c(OCC)cc3cc2c(=O)[nH]1", "class_name": "y"}
{"input_smiles": "CCOC(=O)c1nc2nc3ccccc3cc2c(=O)[nH]1", "class_name": "y"}
{"input_smiles": "COc1cc2nc3nc(C(=O)O)[nH]c(=O)c3cc2cc1O", "class_name": "y"}
{"input_smiles": "COc1cc2cc3c(=O)[nH]c(C(N)=O)nc3nc2cc1OC", "class_name": "n"}
{"input_smiles": "CCOC(=O)c1nc2nc3cc(OCc4ccccc4)c(OCC)cc3cc2c(=O)[nH]1", "class_name": "n"}
{"input_smiles": "CCOC(=O)c1nc2nc3ccc(F)cc3cc2c(=O)[nH]1", "class_name": "n"}
{"input_smiles": "CCOC(=O)c1nc2nc3c(OC)cc(OC)cc3cc2c(=O)[nH]1", "class_name": "y"}
